Recorded values, source patent US20200239543A1.

- target.entity: T1, human CD47 (human, UniProt Q08722 19-139)
- T1 construct: extracellular domain; also called CD47 ECD
- assay.notes: SPR as in Example 1
observation.type: Kd (pM)
Numeric answer only, unit pM assumed.

Inquiry: Which Kd value is on record for SIRP-α D1 variant fused to Fc variant, SEQ ID NO: 102 (Fc fusion) EEELQIIQPDKSVLVAAGETATLRCTITSLFPVGPIQWFRGAGPGRELIYNQREGPFPRVTTVSDLTKRNNMDFSIRIGAITPADAGTYYCVKFRKGSPDDVEFKSGAGTELSVRAKPSDKTHTCPPCPAPEAAGAPSVFLFPPKPKDTLMISRTPEVTCVVVDVSHEDPEVKFNWYVDGVEVHNAKTKPREEQYASTYRVVSVLTVLHQDWLNGKEYKCKVSNKALPAPIEKTISKAKGQPREPQVYTLPPSREEMTKNQVSLTCLVKGFYPSDIAVEWESNGQPENNYKTTPPVLDSDGSFFLYSKLTVDKSRWQQGNVFSCSVMHEALHNHYTQKSLSLSPGK ?
Reply text: 379
